Known LE (ligand efficiency) of a selection of compounds
Biological target: human Mcl-1 (Homo sapiens)
Sequence (Q07820 172-327): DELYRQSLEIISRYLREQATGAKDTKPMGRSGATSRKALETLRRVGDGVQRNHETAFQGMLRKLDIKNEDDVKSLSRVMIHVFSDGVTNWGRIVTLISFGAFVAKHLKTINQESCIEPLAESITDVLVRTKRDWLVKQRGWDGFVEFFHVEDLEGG
Assay: FPA competition assay, displacement of FITC-Bak-BH3 peptide from Mcl-1
Assay type: binding
Conditions: binding to Mcl-1
Give your answer as a number; write no unit.

Qu. Fill in reported LE (ligand efficiency) for this entry: Cc1c(C(=O)O)n2c3c(cccc13)OCC2
Ans. 0.41

Qu. Supply measured LE (ligand efficiency) of CC1Cn2c(C(=O)O)cc3cccc(c32)S1 (stereo not drawn) in your reply.
Ans. 0.38

Qu. Output LE (ligand efficiency) of O=C(O)c1cc2cccc3c2n1CCC3
Ans. 0.35

Qu. Identify measured LE (ligand efficiency) associated with Cc1c(C(=O)O)n2c3c(cccc13)CCC2
Ans. 0.35

Qu. Return reported LE (ligand efficiency). Input compound: Cc1c(C(=O)O)n2c3c(cccc13)SCC2
Ans. 0.41

Qu. State its LE (ligand efficiency) for this compound: O=C(O)c1cc2cccc3c2n1CCS3
Ans. 0.39
